- System: Pseudomonas fluorescens FW300-N2E2
- testConditions: medium / electron acceptor: N2E2 Glucose/aerobic 0.25xMinerals
measurementName: IC50 growth inhibition (mM)
Please respond with the number in mM and leave the unit unwritten.

INSERT INTO assay_data (molecule, readoutunits, numericvalue) VALUES
  ('O.O.O.O.O.O.[Cl-].[Cl-].[Mg+2] [Magnesium chloride hexahydrate]', 'mM', 431);

Alright, here's another molecule for you.
// query # input molecule: O=NO [Sodium nitrite] ; wanted: its IC50 growth inhibition
// result 6.63

====

- Test system: Rhodanobacter sp. FW104-10B01
- testConditions: medium / electron acceptor: 10B01 R2A/aerobic
Reported IC50 growth inhibition is given for each of the following compounds.

Consider the following illustrative entries.
INSERT INTO assay_data (compound, measurementname, result) VALUES
  ('O.O.O.O.O.O.O.O=[As]([O-])([O-])O.[Na+].[Na+] [Sodium arsenate dibasic heptahydrate]', 'IC50 growth inhibition', '> 500 mM'),
  ('OP(O)O [Sodium phosphite dibasic pentahydrate]', 'IC50 growth inhibition', '> 500 mM'),
  ('O.O.O.O.O=S(=O)([O-])[O-].[Be+2] [beryllium sulfate tetrahydrate]', 'IC50 growth inhibition', '> 500 mM'),
  ('OCl [Sodium hypochlorite]', 'IC50 growth inhibition', '> 5 mM');

// query Dear colleague, I am looking for the recorded IC50 growth inhibition of the following compound: O.O=[Te](=O)([O-])[O-].[K+].[K+] [potassium tellurate hydrate]
// result > 0.5 mM

// query Lookup O.O.[Cl][Cu][Cl] [copper (II) chloride dihydrate]
// result > 5 mM

// query What would you report for OB1OB2OB(O)OB(O1)O2 [sodium tetraborate decahydrate] ?
// result > 5 mM

// query // same read-out, input: CC(=O)[O-].[Tl+] [Thallium(I) acetate]
// result > 5 mM

// query Consider next the compound [Cl-].[K+] [Potassium Chloride] in the same way.
// result > 500 mM

// query Please give the result for Cl.N [Ammonium chloride] too.
// result > 500 mM

// query Can you check O=S(O)(O)=S [Sodium thiosulfate] next?
// result > 500 mM

// query And what about the compound [O-][Cl+]O [Sodium Chlorite] ?
// result > 5 mM

// query Also check [K+].[OH-].[OH-].[OH-].[OH-].[OH-].[OH-].[Sb+3] [potassium hexahydroxoantimonate]
// result > 5 mM

// query Same for [Cl][Ag] [silver chloride]
// result > 0.5 mM

// query Next record, please: [Cl][Pb][Cl] [lead (II) chloride]
// result > 5 mM
